Data origin: patent US20260139048A1

# MEASUREMENT_TARGET: T1, His-tagged human TIGIT (human, UniProt Q495A1 22-141)
# T1 construct: SPR analyte; also called human TIGIT protein; not shown: His tag
# T1 sequence: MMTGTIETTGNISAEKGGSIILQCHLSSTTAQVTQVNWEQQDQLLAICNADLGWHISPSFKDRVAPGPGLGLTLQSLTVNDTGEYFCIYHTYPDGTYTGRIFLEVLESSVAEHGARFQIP
# PROCEDURE_TEXT: SPR experiment 2, IgG from HEK293 supernatant captured
Item-by-item account of pKd
Lab note: report pKd as minus log10 of the concentration in molar units, number only.

Answer with reported pKd of humanized TIGIT-19 antibody 19VH4.M4 + 19VL1 (antibody, V domains shown, Full-length IgG, tested as HEK293 supernatant) VH: QVQLVQSGAEVKKPGASVKVSCKASGYAFSRYSMYWVRQAPGQGLEWIAFIDPYSGGSTYNQRFRGKATLTVDTSISTAYMELSRLRSDDTAVYYCARGGDYGWYLGVWGQGTLVTVSS VL: DIQMTQSPSSLSASVGDRVTITCRPSENIYTYLSWYQQKPGKAPKLLIYNAKTLPEGVPSRFSGSGSGTDFTLTISSLQPEDFATYYCQHHYGNPLTFGQGTKVEIK
9.92

New cases:
Answer with reported pKd of humanized TIGIT-19 antibody 19VH4.M6 + 19VL1 (antibody, V domains shown, Full-length IgG, tested as HEK293 supernatant) VH: QVQLVQSGAEVKKPGASVKVSCKASGYTFTRYSMYWVRQAPGQGLEWIAFIDPYSGGSTYNQRFRGKATLTVDTSISTAYMELSRLRSDDTAVYYCARGGDYGWYLGVWGQGTLVTVSS VL: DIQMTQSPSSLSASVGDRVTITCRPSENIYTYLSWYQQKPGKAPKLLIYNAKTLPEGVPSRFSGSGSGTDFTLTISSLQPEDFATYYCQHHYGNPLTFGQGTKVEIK
9.70

Answer with reported pKd of humanized TIGIT-19 antibody 19VH4 + 19VL1.M5 (antibody, V domains shown, Full-length IgG, tested as HEK293 supernatant) VH: QVQLVQSGAEVKKPGASVKVSCKASGYAFSRYSMYWVRQAPGQGLEWIAFIDPYNGGSTYNQRFRGKATLTVDTSISTAYMELSRLRSDDTAVYYCARGGDYGWYLGVWGQGTLVTVSS VL: DIQMTQSPSSLSASVGDRVTITCRASQNIYTYLSWYQQKPGKAPKLLIYNAKSLPSGVPSRFSGSGSGTDFTLTISSLQPEDFATYYCQHHYGNPLTFGQGTKVEIK
10.09

Answer with reported pKd of humanized TIGIT-19 antibody 19VH4.M9 + 19VL1 (antibody, V domains shown, Full-length IgG, tested as HEK293 supernatant) VH: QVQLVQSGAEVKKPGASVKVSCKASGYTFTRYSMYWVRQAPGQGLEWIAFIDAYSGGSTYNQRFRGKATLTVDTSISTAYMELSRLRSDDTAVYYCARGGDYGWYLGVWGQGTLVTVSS VL: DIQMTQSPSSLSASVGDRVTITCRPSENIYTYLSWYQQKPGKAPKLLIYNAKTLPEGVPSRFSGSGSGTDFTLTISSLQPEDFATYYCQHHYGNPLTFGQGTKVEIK
9.66
